# EXPERIMENT: Solubility of glimepiride, pH-dependent
# Assay type: physicochemical
# CONDITIONS: phosphate buffer, 37 °C, pH 8, aqueous buffer, thermodynamic from solid
EXPERIMENTAL_READOUT: solubility

Request: Could you share which solubility value was measured for CCC1=C(C)CN(C(=O)NCCc2ccc(S(=O)(=O)NC(=O)N[C@H]3CC[C@H](C)CC3)cc2)C1=O [glimepiride, Glimepiride] ?
Result: 30 µg/mL

---

# EXPERIMENT: Solubility of glimepiride, pH-dependent
# Format: physicochemical
# CONDITIONS: phosphate buffer, aqueous buffer, thermodynamic from solid; acidic medium, 37° C.
EXPERIMENTAL_READOUT: solubility

Request: Given the entry CCC1=C(C)CN(C(=O)NCCc2ccc(S(=O)(=O)NC(=O)N[C@H]3CC[C@H](C)CC3)cc2)C1=O [glimepiride, Glimepiride] , report its measured solubility.
Result: < 1 µg/mL

Ref: patent US20130259935A1
